Biological target: purified F (free) anti-MBP from MS brain tissue
Experiment: liquid-phase competitive inhibition + solid-phase RIA on human MBP (FIG. 10)
recorded_endpoint: percent inhibition

>  <binder>
KSHGRTQDENPVVHFFKNIVT [synthetic peptide MBP75-95 (Example 2 and later)]

>  <percent inhibition>
100%

$$$$
>  <binder>
VHFFKNIVTP [decapeptide MBP87-96]

>  <percent inhibition>
> 80%

$$$$
>  <binder>
NPVVHFFKNI [decapeptide MBP84-93]

>  <percent inhibition>
> 80%

$$$$
>  <binder>
VVHFFKNIVT [decapeptide MBP86-95]

>  <percent inhibition>
> 80%

$$$$

Next, consider the following binder.
Look at this binder and give its reported percent inhibition. PVVHFFKNIV [decapeptide MBP85-94]
> 80%
